Molecular target: glucocorticoid receptor (Homo sapiens, UniProt P04150)
Construct: endogenous in cells
Sequence (P04150 whole entry): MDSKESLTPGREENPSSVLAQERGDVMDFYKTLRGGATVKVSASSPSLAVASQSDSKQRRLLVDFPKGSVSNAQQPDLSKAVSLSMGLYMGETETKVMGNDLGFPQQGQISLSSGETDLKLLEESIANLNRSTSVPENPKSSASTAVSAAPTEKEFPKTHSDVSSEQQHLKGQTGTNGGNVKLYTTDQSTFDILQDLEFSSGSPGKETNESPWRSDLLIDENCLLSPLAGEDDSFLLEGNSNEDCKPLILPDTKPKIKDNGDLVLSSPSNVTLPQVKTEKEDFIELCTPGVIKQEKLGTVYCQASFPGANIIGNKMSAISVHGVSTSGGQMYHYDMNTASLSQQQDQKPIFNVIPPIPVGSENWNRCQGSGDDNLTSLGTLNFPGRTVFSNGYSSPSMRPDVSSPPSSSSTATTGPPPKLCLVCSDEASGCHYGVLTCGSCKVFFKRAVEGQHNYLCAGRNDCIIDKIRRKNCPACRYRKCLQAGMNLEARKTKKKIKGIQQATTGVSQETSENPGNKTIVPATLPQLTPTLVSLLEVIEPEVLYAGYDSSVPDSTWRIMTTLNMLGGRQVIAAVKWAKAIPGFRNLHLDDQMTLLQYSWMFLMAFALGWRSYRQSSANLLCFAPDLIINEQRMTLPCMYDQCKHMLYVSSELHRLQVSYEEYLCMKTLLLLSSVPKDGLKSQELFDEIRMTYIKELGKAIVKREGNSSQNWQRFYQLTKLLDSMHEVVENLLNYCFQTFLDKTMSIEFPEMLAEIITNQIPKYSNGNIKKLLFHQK
Test: HepG2 Tyrosine Aminotransferase (TAT) Assay
pKi: −log10 of the molar value.
Form field: pKi (one value per entry).

Some entries whose results are on file:
chem_smiles=CC(C)n1ncc(S(=O)(=O)N2CC[C@H]3Cc4c(cnn4-c4ccc(F)cc4)C[C@]3(C(=O)c3nccs3)C2)n1 reported_measurement="7.00 to 7.70"
chem_smiles=O=C(c1nccs1)[C@]12Cc3cnn(-c4ccc(F)cc4)c3C[C@@H]1CCN(S(=O)(=O)c1cccc(C(F)(F)F)n1)C2 reported_measurement="7.00 to 7.70"
chem_smiles=O=C(c1ccccn1)[C@]12Cc3cnn(-c4ccc(F)cc4)c3C[C@@H]1CCN(S(=O)(=O)c1cccc(C(F)(F)F)c1)C2 reported_measurement="7.00 to 7.70"
chem_smiles=O=C(c1ccccn1)[C@]12Cc3cnn(-c4ccc(F)cc4)c3C[C@@H]1CCN(S(=O)(=O)c1ccc(C(F)(F)F)c(F)c1)C2 reported_measurement="7.00 to 7.70"
chem_smiles=CCCn1cc(S(=O)(=O)N2CC[C@H]3Cc4c(cnn4-c4ccc(F)cc4)C[C@]3(C(=O)c3nccs3)C2)cn1 reported_measurement="> 7.70"

Lab request: please report pKi under test system glucocorticoid receptor (Homo sapiens, UniProt P04150) for `CC(C)n1ncc(S(=O)(=O)N2CC[C@H]3Cc4c(cnn4-c4ccc(F)cc4)C[C@]3(C(=O)c3ccccn3)C2)n1`
> 7.70
